biological target: Sodium-dependent serotonin transporter (Homo sapiens, UniProt P31645); test: Displacement of [3H]Citalopram from human recombinant SERT incubated for […] by microbeta scintillation counting method; details: read-out: Ki
Sequence (P31645 whole entry): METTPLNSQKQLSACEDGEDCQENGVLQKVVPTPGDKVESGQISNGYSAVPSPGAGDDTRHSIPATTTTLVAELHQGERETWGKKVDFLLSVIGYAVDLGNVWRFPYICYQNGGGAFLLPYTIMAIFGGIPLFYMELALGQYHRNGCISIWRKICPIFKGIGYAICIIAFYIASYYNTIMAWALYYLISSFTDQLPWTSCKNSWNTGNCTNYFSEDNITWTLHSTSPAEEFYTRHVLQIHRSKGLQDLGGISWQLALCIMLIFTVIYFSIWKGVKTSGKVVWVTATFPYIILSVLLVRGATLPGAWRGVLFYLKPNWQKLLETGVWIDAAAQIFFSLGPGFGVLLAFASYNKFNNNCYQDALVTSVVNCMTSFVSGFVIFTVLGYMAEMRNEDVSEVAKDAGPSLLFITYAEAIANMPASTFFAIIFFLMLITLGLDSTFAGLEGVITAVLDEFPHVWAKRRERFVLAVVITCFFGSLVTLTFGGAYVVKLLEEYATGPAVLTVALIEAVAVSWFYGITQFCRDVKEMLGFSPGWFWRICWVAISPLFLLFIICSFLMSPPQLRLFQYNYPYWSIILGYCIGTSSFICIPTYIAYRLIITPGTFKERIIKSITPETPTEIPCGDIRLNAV
// reported pKi per item
// pKi is dimensionless: -log10 of concentration (M)

Below are worked cases with known answers.
OC1(c2ccc(Cl)cc2)CC2CCC(C1)N2CCCCc1nc2ccccc2s1 (centres undefined); 6.74
Cl.O=C(CCCCN1C2CCC1CC(O)(c1ccc(Cl)cc1)C2)c1nc2ccccc2s1 (centres undefined); 7.27

Query string: Which measured pKi value corresponds to O=C1NCN(c2ccccc2)C12CCN(CCCCc1nc3cc(Cl)ccc3s1)CC2 ?
Result string: 5.51

Query string: # query: pKi of entry O=C1NCN(c2ccccc2)C12CCN(CCCCc1c[nH]c3ccccc13)CC2
Result string: 8.00

* * *

Molecular target: 5-hydroxytryptamine receptor 2C (Homo sapiens, UniProt P28335)
Sequence (P28335 whole entry): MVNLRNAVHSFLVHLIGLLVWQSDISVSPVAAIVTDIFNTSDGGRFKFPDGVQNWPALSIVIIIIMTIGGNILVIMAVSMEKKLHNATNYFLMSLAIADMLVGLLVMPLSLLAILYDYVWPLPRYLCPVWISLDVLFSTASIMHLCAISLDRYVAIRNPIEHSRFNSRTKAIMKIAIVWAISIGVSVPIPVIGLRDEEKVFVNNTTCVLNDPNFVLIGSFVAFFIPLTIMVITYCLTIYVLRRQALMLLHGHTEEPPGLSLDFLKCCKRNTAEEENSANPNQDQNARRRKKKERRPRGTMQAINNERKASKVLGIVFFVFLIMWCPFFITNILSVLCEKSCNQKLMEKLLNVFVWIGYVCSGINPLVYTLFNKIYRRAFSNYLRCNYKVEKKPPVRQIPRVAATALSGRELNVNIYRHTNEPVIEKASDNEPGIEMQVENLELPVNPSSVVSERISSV
Experiment: Displacement of [3H]Mesulergine from human recombinant 5HT2C receptor incubated for […] by microbeta scintillation counting method
outcome-measure: pKi
Units for pKi: none; it is -log10 of a concentration expressed in mol/L.

Query string: Fill blank: measured pKi of the compound O=C1NCN(c2ccccc2)C12CCN(CCCCc1nc3cc(Cl)ccc3s1)CC2 is ____.
Result string: 6.21

* * *

molecular target: 5-hydroxytryptamine receptor 7 (Homo sapiens); assay: Displacement of [3H]LSD from human recombinant 5HT7 receptor incubated for […] by microbeta scintillation counting method
Sequence (P34969 whole entry): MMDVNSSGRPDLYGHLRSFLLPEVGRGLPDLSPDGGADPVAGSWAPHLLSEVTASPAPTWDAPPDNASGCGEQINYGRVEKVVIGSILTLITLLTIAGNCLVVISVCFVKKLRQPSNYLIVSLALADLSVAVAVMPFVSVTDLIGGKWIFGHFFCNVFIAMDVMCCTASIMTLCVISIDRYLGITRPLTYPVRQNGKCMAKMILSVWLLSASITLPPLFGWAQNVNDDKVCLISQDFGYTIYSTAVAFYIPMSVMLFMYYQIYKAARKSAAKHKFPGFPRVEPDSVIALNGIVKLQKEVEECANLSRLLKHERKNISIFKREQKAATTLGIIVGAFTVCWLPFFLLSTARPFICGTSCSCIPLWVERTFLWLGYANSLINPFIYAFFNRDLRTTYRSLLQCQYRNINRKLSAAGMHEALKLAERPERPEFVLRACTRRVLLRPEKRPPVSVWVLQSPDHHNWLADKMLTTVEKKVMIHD
outcome-measure: Ki (nM)
Lab book: enter the figure in nM, no units written.

These solved cases illustrate the format of a correct answer.
O=C(CCCCN1CCN(C(c2ccc(F)cc2)c2ccc(F)cc2)CC1)c1nc2ccccc2s1; 562
O=C1NCN(c2ccccc2)C12CCN(CCCCc1nc3ccccc3s1)CC2; 626

Query string: Write down the reported Ki of OC1(c2ccc(Cl)cc2)CC2CCC(C1)N2CCCCc1nc2ccccc2s1 (stereo not drawn) , test system: 5-hydroxytryptamine receptor 7 (Homo sapiens).
Result string: 1010

Query string: API: value(readout= Ki, system= 5-hydroxytryptamine receptor 7 (Homo sapiens), query= Fc1ccc(C(c2ccc(F)cc2)N2CCN(CCCCc3nc4ccccc4s3)CC2)cc1 )
Result string: 778

Query string: Return Ki measured with 5-hydroxytryptamine receptor 7 (Homo sapiens) given this compound: Cl.O=C(CCCCN1C2CCC1CC(O)(c1ccc(Cl)cc1)C2)c1nc2ccccc2s1 (stereo not drawn)
Result string: 80

Query string: # returns recorded Ki (system: 5-hydroxytryptamine receptor 7 (Homo sapiens)) for OC1(c2ccc(Cl)cc2)CCN(CCCc2nc3ccccc3s2)CC1
Result string: 189

Query string: Return Ki measured with 5-hydroxytryptamine receptor 7 (Homo sapiens) given this compound: O=C1NCN(c2ccccc2)C12CCN(CCCCc1nc3ccccc3o1)CC2
Result string: 1510

* * *

Target: 5-hydroxytryptamine receptor 1A (Homo sapiens, UniProt P08908)
Sequence (P08908 whole entry): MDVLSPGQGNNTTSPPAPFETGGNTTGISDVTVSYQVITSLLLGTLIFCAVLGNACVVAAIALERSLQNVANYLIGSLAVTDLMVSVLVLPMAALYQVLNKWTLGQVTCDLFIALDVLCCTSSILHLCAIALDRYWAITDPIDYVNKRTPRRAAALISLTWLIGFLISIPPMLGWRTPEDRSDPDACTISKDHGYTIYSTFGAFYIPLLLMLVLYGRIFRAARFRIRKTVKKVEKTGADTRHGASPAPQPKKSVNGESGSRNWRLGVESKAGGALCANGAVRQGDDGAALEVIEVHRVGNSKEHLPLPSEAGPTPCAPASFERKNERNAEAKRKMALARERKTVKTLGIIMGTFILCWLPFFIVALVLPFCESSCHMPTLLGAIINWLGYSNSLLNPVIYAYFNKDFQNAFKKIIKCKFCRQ
Experiment: Displacement of [3H]8-OH-DPAT from human recombinant 5HT1A receptor incubated for […] by microbeta scintillation counting method
pKi: −log10 of the molar value.
Please use Fulfilled whenever pKi is not below 7, and Not fulfilled whenever it is.

O=C1NCN(c2ccccc2)C12CCN(CCCCc1nc3ccccc3s1)CC2; Not fulfilled
OC1(c2ccc(Cl)cc2)CCN(CCCc2nc3ccccc3s2)CC1; Fulfilled
O=C1NCN(c2ccccc2)C12CCN(CCCCc1nc3ccccc3o1)CC2; Not fulfilled
O=C1NCN(c2ccccc2)C12CCN(CCCCc1c[nH]c3ccccc13)CC2; Not fulfilled

Query string: Decide: is the reported value of pKi for OC1(c2ccc(Cl)cc2)CCN(CCCCc2nc3ccccc3o2)CC1 equal to or greater than 7?
Result string: Not fulfilled

* * *

target: 5-hydroxytryptamine receptor 2C (5HT2C) (Homo sapiens, UniProt P28335); assay: Displacement of [3H]Mesulergine from human recombinant 5HT2C receptor incubated for […] by microbeta scintillation counting method; conditions: human, recombinant 5HT2C receptor, probe [3H]Mesulergine
outcome-measure: inhibition at […]

O=C1NCN(c2ccccc2)C12CCN(CCCCc1nc3ccccc3o1)CC2; < 50%
O=C1NCN(c2ccccc2)C12CCN(CCCCc1c[nH]c3ccccc13)CC2; < 50%
O=C1NCN(c2ccccc2)C12CCN(CCCCc1nc3ccccc3s1)CC2; < 50%
Cl.O=C(CCCCN1C2CCC1CC(O)(c1ccc(Cl)cc1)C2)c1nc2ccccc2s1 (stereo not given); < 50%

Query string: # lookup: inhibition at […] of O=C(CCCCN1CCC2(CC1)C(=O)NCN2c1ccccc1)c1nc2ccccc2s1
Result string: < 50%

* * *

experiment: Lipophilicity, log P of the compound; assay type: physicochemical; details: octanol/water
Parameter logP: see the listing below.
Write the value as a bare number.

O=C1NCN(c2ccccc2)C12CCN(CCCCc1c[nH]c3ccccc13)CC2; 3.52

Query string: Recorded logP for O=C(CCCN1CCC2(CC1)C(=O)NCN2c1ccccc1)c1ccc(F)cc1 , please?
Result string: 2.78

Query string: Reported logP for O=C(CCCN1CCC(O)(c2ccc(Cl)cc2)CC1)c1ccc(F)cc1 : what is it?
Result string: 3.49

* * *

Recorded measurements of pKi, one per entry
target: D(2) dopamine receptor (Homo sapiens, UniProt P14416); assay: Displacement of [3H]N-methylspiperone from human recombinant dopamine D2 receptor incubated for […] by microbeta scintillation counting method
Sequence (P14416 whole entry): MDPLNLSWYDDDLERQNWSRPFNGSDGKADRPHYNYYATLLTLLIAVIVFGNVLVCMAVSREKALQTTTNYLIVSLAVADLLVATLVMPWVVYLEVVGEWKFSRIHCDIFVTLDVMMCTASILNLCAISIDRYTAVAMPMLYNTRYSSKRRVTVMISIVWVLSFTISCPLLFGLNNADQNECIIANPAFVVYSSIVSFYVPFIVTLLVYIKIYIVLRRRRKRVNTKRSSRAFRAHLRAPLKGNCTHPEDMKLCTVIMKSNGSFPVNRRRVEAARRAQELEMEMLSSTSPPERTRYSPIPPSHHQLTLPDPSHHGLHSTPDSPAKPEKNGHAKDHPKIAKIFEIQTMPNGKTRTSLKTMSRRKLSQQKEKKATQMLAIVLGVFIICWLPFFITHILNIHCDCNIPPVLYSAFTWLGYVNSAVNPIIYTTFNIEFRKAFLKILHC
Here pKi is given on a logarithmic scale as minus log10 of the concentration in mol/L.

Query string: Item O=C1NCN(c2ccccc2)C12CCN(CCCCc1nc3ccccc3s1)CC2 with D(2) dopamine receptor (Homo sapiens, UniProt P14416) - pKi?
Result string: 7.62

Query string: API: value(readout=pKi, system=D(2) dopamine receptor (Homo sapiens, UniProt P14416)) for record OC1(c2ccc(Cl)cc2)CCN(CCCCc2nc3ccccc3o2)CC1
Result string: 6.36

Query string: # query: pKi | item Fc1ccc(C(c2ccc(F)cc2)N2CCN(CCCCc3nc4ccccc4s3)CC2)cc1 | system: D(2) dopamine receptor (Homo sapiens, UniProt P14416)
Result string: 6.71

Query string: Form entry - test system: D(2) dopamine receptor (Homo sapiens, UniProt P14416); read-out: pKi; compound: O=C1NCN(c2ccccc2)C12CCN(CCCCc1nc3cc(Cl)ccc3s1)CC2
Result string: 7.74

Query string: // map OC1(c2ccc(Cl)cc2)CCN(CCCc2nc3ccccc3s2)CC1 to recorded pKi (system: D(2) dopamine receptor (Homo sapiens, UniProt P14416))
Result string: 6.12

Query string: What measured pKi is associated with O=C1NCN(c2ccccc2)C12CCN(CCCCc1nc3ccccc3o1)CC2 on D(2) dopamine receptor (Homo sapiens, UniProt P14416)?
Result string: 8.00

Query string: What is its pKi for D(2) dopamine receptor (Homo sapiens, UniProt P14416)? Entry: O=C(CCCCN1CCN(C(c2ccc(F)cc2)c2ccc(F)cc2)CC1)c1nc2ccccc2s1
Result string: 6.80

* * *

target: 5-hydroxytryptamine receptor 2A (Homo sapiens); experiment: Binding affinity to 5HT2A receptor (unknown origin)
Sequence (P28223 whole entry): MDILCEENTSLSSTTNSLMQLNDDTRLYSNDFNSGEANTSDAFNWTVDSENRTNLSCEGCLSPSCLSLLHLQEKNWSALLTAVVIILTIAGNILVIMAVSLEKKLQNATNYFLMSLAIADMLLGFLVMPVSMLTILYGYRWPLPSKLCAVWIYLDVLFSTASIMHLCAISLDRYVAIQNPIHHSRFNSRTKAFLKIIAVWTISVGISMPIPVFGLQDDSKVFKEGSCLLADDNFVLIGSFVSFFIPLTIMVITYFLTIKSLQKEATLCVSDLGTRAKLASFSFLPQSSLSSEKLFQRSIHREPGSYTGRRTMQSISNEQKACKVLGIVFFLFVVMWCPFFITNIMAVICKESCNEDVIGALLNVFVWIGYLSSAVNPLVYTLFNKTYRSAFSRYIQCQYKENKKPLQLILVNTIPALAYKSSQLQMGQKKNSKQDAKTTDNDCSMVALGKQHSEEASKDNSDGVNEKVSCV
outcome-measure: Ki (nM)
Reply numerically in nM, unit not repeated.

Query string: Which Ki value is on record for O=C(CCCN1CCC(n2c(O)nc3ccccc32)CC1)c1ccc(F)cc1 ?
Result string: 1.2
